Measured IC50 accompanies every entry in the list below.
- Test system: HEK293
- Assay details: Inhibition of LPS-induced NF-kappaB production in HEK293 cells
- Format: functional, cell-based
- Experimental parameters: Homo sapiens
Please provide the amount together with its unit, number first.

Sample records with IC50:
| Chemical string | IC50 |
| --- | --- |
| CCCCCCCCCCCCCCCCS(=O)(=O)NCCCN(CCCNCCCNCCCCNCCCN)CCCNS(=O)(=O)CCCCCCCCCCCCCCCC | 2.68 µM |
| CCCCCCCCS(=O)(=O)NCCCNCCCNCCCN | 5.56 µM |

Please tell me the measured IC50 for "CCCCCCCCCCS(=O)(=O)NCCCN(CCCNCCCCNCCCN)CCCNS(=O)(=O)CCCCCCCCCC" ; system: HEK293.
5.17 µM

Specify the recorded IC50 for "CCCCCCCCS(=O)(=O)NCCNCCCNCCN" , system: HEK293.
13.8 µM

Give reported IC50 for "CCCCCCCCCCCCS(=O)(=O)NCCNCCCNCCN" (HEK293)
0.686 µM

The origin of these recorded values is ChEMBL document CHEMBL1141383.
